# Lookup of reported IC50 keyed by entry
- procedure.summary: Cytotoxicity MTT assay, SK-OV-3
- Assay type: cell-based
- experimental.context: human, SK-OV-3 cells

{"compound": "CC(=O)O[C@H]1C(=O)[C@@]2(C)[C@H]([C@H](OC(=O)c3ccccc3)[C@]3(O)C[C@H](OC(=O)[C@H](O)[C@@H](NC(=O)c4ccccc4)c4ccccc4)C(C)=C1C3(C)C)[C@]1(OC(C)=O)CO[C@@H]1C[C@@H]2O [Taxol, Paclitaxel, reference compound]", "unit.label": "nM", "IC50": 1080}
{"compound": "NC[C@H]1O[C@@H](O[C@H]([C@H]2O[C@@H](n3ccc(=O)[nH]c3=O)[C@H](O)[C@@H]2O)[C@H](NCCCC(=O)NCc2ccc(N3CCC(Oc4ccc(C(F)(F)F)cc4)CC3)cc2)C(N)=O)[C@H](O)[C@@H]1O [Compound 11]", "unit.label": "nM", "IC50": 2850}

###

- procedure.summary: Cytotoxicity MTT assay, LoVo
- Format: cell-based
- experimental.context: human, LoVo cells
- Procedure: Selected molecules were tested for cytotoxicity (IC50) in cancer and healthy cells via a MTT colorimetric assay. Each cell was cultured in recommended medium by ATCC, and the IC50 data were obtained with each cell line.
# Lookup of reported IC50 keyed by entry
reported.property: IC50 (nM)

{"compound": "NC[C@H]1O[C@@H](O[C@H]([C@H]2O[C@@H](n3ccc(=O)[nH]c3=O)[C@H](O)[C@@H]2O)[C@H](NCCCC(=O)NCc2ccc(N3CCC(Oc4ccc(C(F)(F)F)cc4)CC3)cc2)C(N)=O)[C@H](O)[C@@H]1O", "observed.measurement": 220}
{"compound": "CC(=O)O[C@H]1C(=O)[C@@]2(C)[C@H]([C@H](OC(=O)c3ccccc3)[C@]3(O)C[C@H](OC(=O)[C@H](O)[C@@H](NC(=O)c4ccccc4)c4ccccc4)C(C)=C1C3(C)C)[C@]1(OC(C)=O)CO[C@@H]1C[C@@H]2O [Taxol, Paclitaxel, reference compound]", "observed.measurement": 57}

###

- procedure.summary: Cytotoxicity MTT assay, HPAF-II
- Format: cell-based
- experimental.context: human, HPAF-II cells

{"compound": "NC[C@H]1O[C@@H](O[C@H]([C@H]2O[C@@H](n3ccc(=O)[nH]c3=O)[C@H](O)[C@@H]2O)[C@H](NCCCC(=O)NCc2ccc(N3CCC(Oc4ccc(C(F)(F)F)cc4)CC3)cc2)C(N)=O)[C@H](O)[C@@H]1O", "readout.relation": "<", "IC50 (nM)": 98}
{"compound": "CC(=O)O[C@H]1C(=O)[C@@]2(C)[C@H]([C@H](OC(=O)c3ccccc3)[C@]3(O)C[C@H](OC(=O)[C@H](O)[C@@H](NC(=O)c4ccccc4)c4ccccc4)C(C)=C1C3(C)C)[C@]1(OC(C)=O)CO[C@@H]1C[C@@H]2O [Taxol, Paclitaxel, reference compound]", "readout.relation": "=", "IC50 (nM)": 20}

###

- procedure.summary: Cytotoxicity MTT assay, HCT 116
- Format: cell-based
- experimental.context: human, HCT 116 cells

{"chemical.structure": "NC[C@H]1O[C@@H](O[C@H]([C@H]2O[C@@H](n3ccc(=O)[nH]c3=O)[C@H](O)[C@@H]2O)[C@H](NCCCC(=O)NCc2ccc(N3CCC(Oc4ccc(C(F)(F)F)cc4)CC3)cc2)C(N)=O)[C@H](O)[C@@H]1O", "unit.label": "µM", "IC50": 3.54}

###

# Lookup of reported IC50 keyed by entry
- procedure.summary: Cytotoxicity MTT assay, KB
- Type: cell-based
- experimental.context: human, KB cells
- Procedure: Selected molecules were tested for cytotoxicity (IC50) in cancer and healthy cells via a MTT colorimetric assay. Each cell was cultured in recommended medium by ATCC, and the IC50 data were obtained with each cell line.

{"molecule": "CC(=O)O[C@H]1C(=O)[C@@]2(C)[C@H]([C@H](OC(=O)c3ccccc3)[C@]3(O)C[C@H](OC(=O)[C@H](O)[C@@H](NC(=O)c4ccccc4)c4ccccc4)C(C)=C1C3(C)C)[C@]1(OC(C)=O)CO[C@@H]1C[C@@H]2O [Taxol, Paclitaxel, reference compound]", "IC50, µM": 0.79}
{"molecule": "NC[C@H]1O[C@@H](O[C@H]([C@H]2O[C@@H](n3ccc(=O)[nH]c3=O)[C@H](O)[C@@H]2O)[C@H](NCCCC(=O)NCc2ccc(N3CCC(Oc4ccc(C(F)(F)F)cc4)CC3)cc2)C(N)=O)[C@H](O)[C@@H]1O [Compound 11]", "IC50, µM": 7.09}
